# Test system: IGROV1 complex spheroids (HUVEC, MSC), viability % test/control
# PROCEDURE DETAILS: Anticancer human tumor IGROV1 cell line growth inhibition [GQUAD]; active = viability on the fitted dose curve at most 10% of control; inactive = the rest;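 note: spheroids exposed to compounds for 7 days before readout; 100% = DMSO vehicle control viability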
# CONDITION SUMMARY: second compound 10 µM; first compound 10 µM
Classes used: active, inactive

[[record]]
molecule = "Cc1cccc(N(C)C(=O)C2C(O)CCN2c2nc(C)cc(C(F)(F)F)c2C#N)c1 (stereo not given) + CN(C)c1ccc(Nc2c3ccc(NC(=O)CCN4CCCC4)cc3nc3cc(NC(=O)CCN4CCCC4)ccc23)cc1"
class_assignment = "inactive"

[[record]]
molecule = "C=CC(=O)N1CCN(c2nc(=O)n(-c3c(C)ccnc3C(C)C)c3nc(-c4c(O)cccc4F)c(F)cc23)C(C)C1 (stereo not given) + Cc1[nH]c2ccc(F)cc2c1-c1nc2c3cccnc3c3ncccc3c2[nH]1"
class_assignment = "active"

[[record]]
molecule = "CC1COCCN1c1cc(C2(O)CC3CCC(C2)O3)c2cnn(-c3ccn[nH]3)c2n1 (stereo not given) + CN(C)c1ccc(Nc2c3ccc(NC(=O)CCN4CCCC4)cc3nc3cc(NC(=O)CCN4CCCC4)ccc23)cc1"
class_assignment = "active"

[[record]]
molecule = "COc1cc(C2c3cc4c(cc3C(OC3OC5COC(C)OC5C(O)C3O)C3COC(=O)C23)OCO4)cc(OC)c1O (stereo not given) + Cc1cnc(CNC(=O)c2c(=O)c3ccc(N4CCCN(C)CC4)nc3n3c2sc2ccccc23)cn1"
class_assignment = "active"

[[record]]
molecule = "O=C(c1cc(Cc2n[nH]c(=O)c3ccccc23)ccc1F)N1CCN(C(=O)C2CC2)CC1 + Cc1[nH]c2ccc(F)cc2c1-c1nc2c3cccnc3c3ncccc3c2[nH]1"
class_assignment = "active"


* * *

Attribute: viability, T/C
# Tested on: IGROV1 complex spheroids (HUVEC, MSC), viability % test/control
# PROCEDURE DETAILS: Anticancer human tumor IGROV1 cell line growth inhibition [GQUAD];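 note: spheroids exposed to compounds for 7 days before readout; 100% = DMSO vehicle control viability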
# CONDITION SUMMARY: second compound 0.316 µM; first compound 1 µM; stronger effect = lower value
RECORDED ENDPOINT: viability, T/C (%)

[[record]]
compound = "C=CCn1c(=O)c2cnc(Nc3ccc(N4CCN(C)CC4)cc3)nc2n1-c1cccc(C(C)(C)O)n1 + CN(C)c1ccc(Nc2c3ccc(NC(=O)CCN4CCCC4)cc3nc3cc(NC(=O)CCN4CCCC4)ccc23)cc1"
recorded_result = 3.01

[[record]]
compound = "C=CC(=O)N1CCN(c2nc(=O)n(-c3c(C)ccnc3C(C)C)c3nc(-c4c(O)cccc4F)c(F)cc23)C(C)C1 (stereo not given) + CN(C)c1ccc(Nc2c3ccc(NC(=O)CCN4CCCC4)cc3nc3cc(NC(=O)CCN4CCCC4)ccc23)cc1"
recorded_result = 83.3

[[record]]
compound = "O=C(c1cc(Cc2n[nH]c(=O)c3ccccc23)ccc1F)N1CCN(C(=O)C2CC2)CC1 + Cc1[nH]c2ccc(F)cc2c1-c1nc2c3cccnc3c3ncccc3c2[nH]1"
recorded_result = 82.3

[[record]]
compound = "COc1ccc([C@@H](O)c2cc(-c3ncnc4cc(N5CCOCC5)ccc34)c(F)cc2Cl)nn1 + Cc1cnc(CNC(=O)c2c(=O)c3ccc(N4CCCN(C)CC4)nc3n3c2sc2ccccc23)cn1"
recorded_result = 6.16

[[record]]
compound = "CC(C)n1c(=O)n(C)c2cnc3cc(F)c(-c4ccc(OCCCN5CCCCC5)nc4)cc3c21 + CN(C)c1ccc(Nc2c3ccc(NC(=O)CCN4CCCC4)cc3nc3cc(NC(=O)CCN4CCCC4)ccc23)cc1"
recorded_result = 74.8


* * *

# Test system: IGROV1 complex spheroids (HUVEC, MSC), viability % test/control
# PROCEDURE DETAILS: Anticancer human tumor IGROV1 cell line growth inhibition [GQUAD];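 note: spheroids exposed to compounds for 7 days before readout; 100% = DMSO vehicle control viability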
# CONDITION SUMMARY: second compound 0.316 µM; first compound 1 µM; stronger effect = lower value
Decide using viability, T/C alone. Strictly below 40%: rule met. Equal to or above 40%: rule not met.

[[record]]
compound = "COc1cccc2c1C(=O)c1c(O)c3c(c(O)c1C2=O)CC(O)(C(=O)CO)CC3OC1CC(N)C(O)C(C)O1 (stereo not given) + CN(C)c1ccc(Nc2c3ccc(NC(=O)CCN4CCCC4)cc3nc3cc(NC(=O)CCN4CCCC4)ccc23)cc1"
class_assignment = "rule met"

[[record]]
compound = "O=C(NO)c1cnc(N2CCN(S(=O)(=O)c3ccc4ccccc4c3)CC2)nc1 + CN(C)c1ccc(Nc2c3ccc(NC(=O)CCN4CCCC4)cc3nc3cc(NC(=O)CCN4CCCC4)ccc23)cc1"
class_assignment = "rule met"

[[record]]
compound = "C#Cc1c(F)ccc2cc(O)cc(-c3ncc4c(N5CC6CCC(C5)N6)nc(OCC56CCCN5CC(F)C6)nc4c3F)c12 (stereo not given) + Cc1[nH]c2ccc(F)cc2c1-c1nc2c3cccnc3c3ncccc3c2[nH]1"
class_assignment = "rule not met"

[[record]]
compound = "CC1COCCN1c1cc(-c2ccnn2C)c2ccnc(-c3ccn[nH]3)c2n1 (stereo not given) + CN(C)c1ccc(Nc2c3ccc(NC(=O)CCN4CCCC4)cc3nc3cc(NC(=O)CCN4CCCC4)ccc23)cc1"
class_assignment = "rule met"

[[record]]
compound = "CCCS(=O)(=O)Nc1ccc(F)c(C(=O)c2c[nH]c3ncc(-c4ccc(Cl)cc4)cc23)c1F + Cc1[nH]c2ccc(F)cc2c1-c1nc2c3cccnc3c3ncccc3c2[nH]1"
class_assignment = "rule not met"

[[record]]
compound = "CC1COCCN1c1cc(C2(O)CC3CCC(C2)O3)c2cnn(-c3ccn[nH]3)c2n1 (stereo not given) + Cc1cnc(CNC(=O)c2c(=O)c3ccc(N4CCCN(C)CC4)nc3n3c2sc2ccccc23)cn1"
class_assignment = "rule met"

[[record]]
compound = "CC(=O)O[C@H]1C(=O)[C@@]2(C)[C@H]([C@H](OC(=O)c3ccccc3)[C@]3(O)C[C@H](OC(=O)[C@H](O)[C@@H](NC(=O)c4ccccc4)c4ccccc4)C(C)=C1C3(C)C)[C@]1(OC(C)=O)CO[C@@H]1C[C@@H]2O + Cc1cnc(CNC(=O)c2c(=O)c3ccc(N4CCCN(C)CC4)nc3n3c2sc2ccccc23)cn1"
class_assignment = "rule met"

[[record]]
compound = "CC1COCCN1c1cc(C2(O)CC3CCC(C2)O3)c2cnn(-c3ccn[nH]3)c2n1 (stereo not given) + CN(C)c1ccc(Nc2c3ccc(NC(=O)CCN4CCCC4)cc3nc3cc(NC(=O)CCN4CCCC4)ccc23)cc1"
class_assignment = "rule met"

[[record]]
compound = "CC1COCCN1c1cc(-c2ccnn2C)c2ccnc(-c3ccn[nH]3)c2n1 (stereo not given) + Cc1cnc(CNC(=O)c2c(=O)c3ccc(N4CCCN(C)CC4)nc3n3c2sc2ccccc23)cn1"
class_assignment = "rule met"

[[record]]
compound = "COc1cccc2c1C(=O)c1c(O)c3c(c(O)c1C2=O)CC(O)(C(=O)CO)CC3OC1CC(N)C(O)C(C)O1 (stereo not given) + Cc1cnc(CNC(=O)c2c(=O)c3ccc(N4CCCN(C)CC4)nc3n3c2sc2ccccc23)cn1"
class_assignment = "rule met"

[[record]]
compound = "CCCS(=O)(=O)Nc1ccc(F)c(C(=O)c2c[nH]c3ncc(-c4ccc(Cl)cc4)cc23)c1F + CN(C)c1ccc(Nc2c3ccc(NC(=O)CCN4CCCC4)cc3nc3cc(NC(=O)CCN4CCCC4)ccc23)cc1"
class_assignment = "rule not met"

[[record]]
compound = "O=c1[nH]cc(F)c(=O)[nH]1 + Cc1[nH]c2ccc(F)cc2c1-c1nc2c3cccnc3c3ncccc3c2[nH]1"
class_assignment = "rule not met"

[[record]]
compound = "Cc1cccc(N(C)C(=O)C2C(O)CCN2c2nc(C)cc(C(F)(F)F)c2C#N)c1 (stereo not given) + Cc1cnc(CNC(=O)c2c(=O)c3ccc(N4CCCN(C)CC4)nc3n3c2sc2ccccc23)cn1"
class_assignment = "rule met"

[[record]]
compound = "C#Cc1c(F)ccc2cc(O)cc(-c3ncc4c(N5CC6CCC(C5)N6)nc(OCC56CCCN5CC(F)C6)nc4c3F)c12 (stereo not given) + Cc1cnc(CNC(=O)c2c(=O)c3ccc(N4CCCN(C)CC4)nc3n3c2sc2ccccc23)cn1"
class_assignment = "rule met"

[[record]]
compound = "COc1ccc([C@@H](O)c2cc(-c3ncnc4cc(N5CCOCC5)ccc34)c(F)cc2Cl)nn1 + Cc1[nH]c2ccc(F)cc2c1-c1nc2c3cccnc3c3ncccc3c2[nH]1"
class_assignment = "rule not met"

[[record]]
compound = "COc1cc(C2c3cc4c(cc3C(OC3OC5COC(C)OC5C(O)C3O)C3COC(=O)C23)OCO4)cc(OC)c1O (stereo not given) + Cc1cnc(CNC(=O)c2c(=O)c3ccc(N4CCCN(C)CC4)nc3n3c2sc2ccccc23)cn1"
class_assignment = "rule met"

[[record]]
compound = "O=C(c1cc(Cc2n[nH]c(=O)c3ccccc23)ccc1F)N1CCN(C(=O)C2CC2)CC1 + CN(C)c1ccc(Nc2c3ccc(NC(=O)CCN4CCCC4)cc3nc3cc(NC(=O)CCN4CCCC4)ccc23)cc1"
class_assignment = "rule not met"

[[record]]
compound = "CC(C)(O)C1CCC(Nc2ccc3ncc(-c4cccc(C(F)(F)F)c4)n3n2)CC1 (stereo not given) + Cc1[nH]c2ccc(F)cc2c1-c1nc2c3cccnc3c3ncccc3c2[nH]1"
class_assignment = "rule met"

[[record]]
compound = "Cc1cccc(N(C)C(=O)C2C(O)CCN2c2nc(C)cc(C(F)(F)F)c2C#N)c1 (stereo not given) + Cc1[nH]c2ccc(F)cc2c1-c1nc2c3cccnc3c3ncccc3c2[nH]1"
class_assignment = "rule not met"

[[record]]
compound = "COc1cccc2c1C(=O)c1c(O)c3c(c(O)c1C2=O)CC(O)(C(=O)CO)CC3OC1CC(N)C(O)C(C)O1 (stereo not given) + Cc1[nH]c2ccc(F)cc2c1-c1nc2c3cccnc3c3ncccc3c2[nH]1"
class_assignment = "rule met"

